# R0 annotations
- Measurement target: T1, recombinant cynomolgus ApoC3 (cynomolgus monkey, UniProt P18659 21-99, biotinylated in the captured-antigen assays (Tables 6 and 8); sites not stated)
- T1 construct: No cleavage site is stated, so none is applied; also called rcyApoC3; bio-rcyApoC3
- T1 sequence (P18659 21-99 limits assumed): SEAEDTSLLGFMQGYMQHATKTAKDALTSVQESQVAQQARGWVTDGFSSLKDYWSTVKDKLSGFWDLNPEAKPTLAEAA
- Test method notes: SPR, biotinylated antigen captured on SA chip, scFv periplasmic extract injected, pH 7.4
Measure: R0 (RU)

[
  {
    "Binder": "29G02 scFv (scFv, part only; not given: scFv linker, domain order, c-myc tag, V domains shown, not shown: another chain or arm of the molecule; small tags and cut ends) VH: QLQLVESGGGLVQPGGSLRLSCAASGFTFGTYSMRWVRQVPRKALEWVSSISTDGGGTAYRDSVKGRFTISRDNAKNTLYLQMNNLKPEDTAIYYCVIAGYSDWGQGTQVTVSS VL: DVVLTQTPGSLSVVPGESASISCKATQSLVHIDGKTYLYWLLQKPGQSPQRLIYQVSTRDSGVPDRFTGAGSGAEFTLKISGVKAEDAGVYYCAQDTYSTKTFGQGTKLEIK",
    "U": "RU",
    "Observed result": 102
  },
  {
    "Binder": "29B03 scFv (scFv, part only; not given: scFv linker, domain order, c-myc tag, V domains shown, not shown: another chain or arm of the molecule; small tags and cut ends) VH: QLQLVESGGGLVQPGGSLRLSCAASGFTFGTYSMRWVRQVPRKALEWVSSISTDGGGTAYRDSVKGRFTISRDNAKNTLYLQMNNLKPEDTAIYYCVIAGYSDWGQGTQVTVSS VL: DVVLTQTPGSLSVVPGESASISCKAGQNLVHPDGKTYLYWLLQKPGQSPQRLIYQVSNRDSGVPDRFTGSGSGTDFTLKISGVKVEDAGVYYCAQGTYWPKTFGQGTKLEIK",
    "U": "RU",
    "Observed result": 122
  }
]
